Test system: 242566-281-R-J2-PDC complex spheroid viability;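 further: spheroids exposed to compound for 7 days before readout; 100% = DMSO vehicle control wells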
methodSummary: Anticancer human tumor 242566-281-R-J2-PDC patient-derived pancreatic carcinoma cell line growth inhibition [RAS]
conditionDescription: second compound 3.16 µM; first compound 3.16 µM; active compounds read low
Hi there, I'd appreciate the recorded viability, T/C for every entry that follows.

Worked cases, answers included:
{"compound": "NC1c2ccccc2OC12CCN(c1cnc3c(N4CCCc5ncccc54)n[nH]c3n1)CC2 (stereo not drawn) + C#Cc1c(F)ccc2cc(O)cc(-c3ncc4c(N5CC6CCC(C5)N6)nc(OCC56CCCN5CC(F)C6)nc4c3F)c12", "studySystem": "242566-281-R-J2-PDC complex spheroid viability", "experimentalReadout": "viability, T/C", "reportedMeasurement": "34.9%"}
{"compound": "CC(=O)OC12COC1CC(O)C1(C)C(=O)C(O)C3=C(C)C(OC(=O)C(O)C(NC(=O)OC(C)(C)C)c4ccccc4)CC(O)(C(OC(=O)c4ccccc4)C21)C3(C)C (stereo not drawn) + C#Cc1c(F)ccc2cc(O)cc(-c3ncc4c(N5CC6CCC(C5)N6)nc(OCC56CCCN5CC(F)C6)nc4c3F)c12", "studySystem": "242566-281-R-J2-PDC complex spheroid viability", "experimentalReadout": "viability, T/C", "reportedMeasurement": "30.7%"}

Lab note: next compound to report on.
Request: Bench note: what viability, T/C did C[C@@H](NC(=O)c1ncnc(N)c1Cl)c1ncc(C(=O)Nc2cc(C(F)(F)F)c(Cl)cn2)s1 + C#Cc1c(F)ccc2cc(O)cc(-c3ncc4c(N5CC6CCC(C5)N6)nc(OCC56CCCN5CC(F)C6)nc4c3F)c12 show?
Response: 62.2%
